Ref: the supplement of paper PMC3937590

System: MDAMB175VII
Test: -log10 GI50 (growth inhibition 50%) (-log10(M)); higher = more potent growth inhibition
Reported property: -log10 GI50

>>> measured("O=c1[nH]c(=O)n([C@H]2C[C@H](O)[C@@H](CO)O2)cc1F")
4.69
>>> measured("O=C1NC(=O)/C(=C/c2ccc(-c3ccc(F)cc3O)o2)S1")
5.29
>>> measured("COC1=C2C[C@@H](C)C[C@H](OC)[C@H](O)[C@@H](C)/C=C(\\C)[C@H](OC(N)=O)[C@@H](OC)/C=C\\C=C(/C)C(=O)NC(=CC1=O)C2=O")
7.75
>>> measured("COc1cccc(-c2cc(=O)c3ccccc3o2)c1N")
4.85
>>> measured("O=C1NC(=O)/C(=C/c2ccc3nccc(-c4ccncc4)c3c2)S1")
6.33
>>> measured("COc1cccc2c1C(=O)c1c(O)c3c(c(O)c1C2=O)C[C@@](O)(C(=O)CO)C[C@@H]3O[C@H]1C[C@H](N)[C@H](O)[C@H](C)O1")
6.48
>>> measured("O=c1[nH]c2ccccc2n1C1CCN(Cc2ccc(-c3[nH]c4cc5ncnc5cc4nc3-c3ccccc3)cc2)CC1")
5.75

----------
System: MCF10F
Assay: -log10 GI50 (growth inhibition 50%) (-log10(M)); higher = more potent growth inhibition
Reported property: -log10 GI50
Reply briefly: the number, and no unit.

>>> measured("O=C1C(Cl)=C(NCCN2CCOCC2)C(=O)c2ncccc21")
5.6
>>> measured("C[C@]12O[C@H](C[C@]1(O)CO)n1c3ccccc3c3c4c(c5c6ccccc6n2c5c31)CNC4=O")
5.72
>>> measured("O=C1NC(=O)/C(=C/c2ccc3nccc(-c4ccncc4)c3c2)S1")
6.71
>>> measured("COc1cc(Nc2c(C#N)cnc3cc(OCCCN4CCN(C)CC4)c(OC)cc23)c(Cl)cc1Cl")
5.75
>>> measured("CCCC(CCC)C(=O)O")
2.42
>>> measured("Cn1ncc(Cl)c1-c1cc(C(=O)N[C@H](CN)Cc2ccc(F)c(F)c2)oc1Cl")
5.45
>>> measured("Cn1cnc2c(F)c(Nc3ccc(Br)cc3Cl)c(C(=O)NOCCO)cc21")
5.62

Reported -log10 GI50 for NS(=O)(=O)c1ccc(Nc2nc(OCC3CCCCC3)c3[nH]cnc3n2)cc1 was 5

----------
Test system: MDAMB361
Experiment: -log10 GI50 (growth inhibition 50%) (-log10(M)); higher = more potent growth inhibition
Reported property: -log10 GI50

>>> measured("O=C(O)C(=O)O.[NH-][C@@H]1CCCC[C@H]1[NH-].[Pt+2]")
5.46
>>> measured("NS(=O)(=O)c1ccc(Nc2nc(OCC3CCCCC3)c3[nH]cnc3n2)cc1")
4.58
>>> measured("O=C1C(Cl)=C(NCCN2CCOCC2)C(=O)c2ncccc21")
5.27
>>> measured("CS(=O)(=O)CCNCc1ccc(-c2ccc3ncnc(Nc4ccc(OCc5cccc(F)c5)c(Cl)c4)c3c2)o1")
5.33
>>> measured("CO[C@H]1C[C@@H]2CC[C@@H](C)[C@@](O)(O2)C(=O)C(=O)N2CCCC[C@H]2C(=O)O[C@H]([C@H](C)C[C@@H]2CC[C@@H](O)[C@H](OC)C2)CC(=O)[C@H](C)/C=C(\\C)[C@@H](O)[C@@H](OC)C(=O)[C@H](C)C[C@H](C)/C=C/C=C/C=C/1C")
6.22

----------
# -log10 GI50 per record follows
Tested on: MDAMB361
Assay: -log10 GI50 (growth inhibition 50%) (-log10(M)); higher = more potent growth inhibition

>>> measured("Cc1[nH]c2ccccc2c1CCNCc1ccc(/C=C/C(=O)NO)cc1")
7.46

Reported -log10 GI50 for COc1cc2c(Nc3ccc(NC(=O)c4ccccc4)cc3)ncnc2cc1OCCCN1CCOCC1 was 5.41

Reported -log10 GI50 for Cn1cnc2c(F)c(Nc3ccc(Br)cc3Cl)c(C(=O)NOCCO)cc21 was < 4.3

Reported -log10 GI50 for O=S(=O)(CC1CS1)c1ccc(Oc2ccccc2)cc1 (stereo unspecified) was < 3.78

Reported -log10 GI50 for O=c1cc(-c2ccccc2)oc2cc(O)c(O)c(O)c12 was < 3.78

Reported -log10 GI50 for CC(C)[C@H](CO)Nc1nc(Nc2cccc(Cl)c2)c2ncn(C(C)C)c2n1 was < 3.78

----------
Tested on: MDAMB134VI
Assay: -log10 GI50 (growth inhibition 50%) (-log10(M)); higher = more potent growth inhibition
Reported property: -log10 GI50

>>> measured("CC[C@@]1(O)C(=O)OCc2c1cc1n(c2=O)Cc2cc3c(CN(C)C)c(O)ccc3nc2-1 [Topotecan]")
6.94

1 = CC(=O)O[C@@]12CO[C@@H]1C[C@H](O)[C@@]1(C)C(=O)[C@H](O)C3=C(C)[C@@H](OC(=O)[C@H](O)[C@@H](NC(=O)OC(C)(C)C)c4ccccc4)C[C@@](O)([C@@H](OC(=O)c4ccccc4)[C@H]21)C3(C)C [Docetaxel]
2 = CC[C@H](CO)Nc1nc(NCc2ccccc2O)c2ncn(C(C)C)c2n1 [Olomoucine II]
Query: Between the two listed entries 1 and 2 , which has its -log10 GI50 at the higher number? State your choice using its label.
Reply: 1

a = CNC(=O)c1cc(Oc2ccc(NC(=O)Nc3ccc(Cl)c(C(F)(F)F)c3)cc2)ccn1 [Sorafenib]
b = COc1ccc(-c2cc3c(C)nc(N)nc3n([C@H]3CC[C@H](OCCO)CC3)c2=O)cn1
Query: Between the two listed entries a and b , which has its -log10 GI50 at the higher number? State your choice using its label.
Reply: b

1 = CC(=O)NCC(=O)N1[C@@H]2CC[C@H]1c1ccc(Nc3ncc(C(F)(F)F)c(NC4CCC4)n3)cc12
2 = O=c1[nH]c(=O)n([C@H]2C[C@H](O)[C@@H](CO)O2)cc1F [Floxuridine]
Query: Between the two listed entries 1 and 2 , which has its -log10 GI50 at the higher number? State your choice using its label.
Reply: 1
(1: 5.3, 2: 3.2)

----------
# -log10 GI50 per record follows
System: MDAMB157
Test: -log10 GI50 (growth inhibition 50%) (-log10(M)); higher = more potent growth inhibition

Known -log10 GI50 results, listed for orientation:
>>> measured("O=C(O)c1ccc(-c2c[nH]c3ncc(-c4ccccc4)cc23)cc1C1CCCC1")
"< 4.18"
>>> measured("CC(C)[C@H](CO)Nc1nc(Nc2cccc(Cl)c2)c2ncn(C(C)C)c2n1")
"< 3.78"

Reported -log10 GI50 for Cc1cc(Nc2cc(N3CCN(C)CC3)nc(Sc3ccc(NC(=O)C4CC4)cc3)n2)n[nH]1 was 5.43

----------
Test system: LY2
Assay: -log10 GI50 (growth inhibition 50%) (-log10(M)); higher = more potent growth inhibition
Reported property: -log10 GI50
Reply briefly: the number, and no unit.

Fill in: LY2 -log10 GI50 for CC(=O)NCC(=O)N1[C@@H]2CC[C@H]1c1ccc(Nc3ncc(C(F)(F)F)c(NC4CCC4)n3)cc12 = 5.5

Fill in: LY2 -log10 GI50 for O=c1[nH]c2ccccc2n1C1CCN(Cc2ccc(-c3[nH]c4cc5ncnc5cc4nc3-c3ccccc3)cc2)CC1 = 5.85

Fill in: LY2 -log10 GI50 for O=C(O)c1ccc(-c2c[nH]c3ncc(-c4ccccc4)cc23)cc1C1CCCC1 = 5.15

Fill in: LY2 -log10 GI50 for Cc1cc(Nc2cc(N3CCN(C)CC3)nc(Sc3ccc(NC(=O)C4CC4)cc3)n2)n[nH]1 = 5.21

----------
Test system: HCC1954
Experiment: -log10 GI50 (growth inhibition 50%) (-log10(M)); higher = more potent growth inhibition
Reported property: -log10 GI50

>>> measured("Cc1cc(Nc2cc(N3CCN(C)CC3)nc(Sc3ccc(NC(=O)C4CC4)cc3)n2)n[nH]1")
5.32
>>> measured("CC(C)[C@H](CO)Nc1nc(Nc2cccc(Cl)c2)c2ncn(C(C)C)c2n1")
4.11
>>> measured("CC(C(C)N1CC(=O)NC(=O)C1)N1CC(=O)NC(=O)C1 (stereo not given)")
4.82
>>> measured("CCC1=C[C@@H]2CN(C1)Cc1c([nH]c3ccccc13)[C@@](C(=O)OC)(c1cc3c(cc1OC)N(C)[C@H]1[C@@](O)(C(=O)OC)[C@H](OC(C)=O)[C@]4(CC)C=CCN5CC[C@]31[C@@H]54)C2")
6.24
>>> measured("NS(=O)(=O)OC[C@@H]1C[C@@H](n2ccc3c(N[C@H]4CCc5ccccc54)ncnc32)C[C@@H]1O")
5.35
>>> measured("C[C@@H](Oc1cc(-c2cnn(C3CCNCC3)c2)cnc1N)c1c(Cl)ccc(F)c1Cl")
5.45
>>> measured("C#Cc1cccc(Nc2ncnc3cc(OCCOC)c(OCCOC)cc23)c1")
5.55

----------
Test system: SUM159PT
Assay: -log10 GI50 (growth inhibition 50%) (-log10(M)); higher = more potent growth inhibition
Reported property: -log10 GI50
Reply briefly: the number, and no unit.

>>> measured("C#Cc1cccc(Nc2ncnc3cc(OCCOC)c(OCCOC)cc23)c1")
4.93

Reported -log10 GI50 for O=c1[nH]cc(F)c(=O)[nH]1 was 4.68

Reported -log10 GI50 for O=C1NC(=O)/C(=C/c2ccc3nccc(-c4ccncc4)c3c2)S1 was 6.72

Reported -log10 GI50 for O=c1[nH]c(=O)n([C@H]2C[C@H](O)[C@@H](CO)O2)cc1F was 4.49
